Hello, the source for this data is the RNAGym collection of RNA variant scans (doi:10.1126/science.aae0568), in case you need it.

B1: tRNA (parent)
chain: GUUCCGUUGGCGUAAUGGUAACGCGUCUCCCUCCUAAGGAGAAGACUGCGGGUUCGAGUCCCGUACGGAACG

Variants of: B1
assay protocol: yeast fitness relative to wild type (ratio to wild type); higher = fitter; tRNA-Arg(CCU), competitive growth, 37 C, YPD
This sample holds only a part of the variants without activity.
metric name: yeast fitness
Answers are plain numbers.

Check out these entries, answers already filled in.
In [3]: df
Out[3]:
    variant_label  value_measured
0       G10C A65C            0.76
1  U16G C61U A69C           0.644
2  G12A C27G A43U            0.53
3  C27A A40G A69U           0.582
4  G25A G50A C66U           0.629

For every record below, what is its yeast fitness?
1. A14G A40G U47C
2. A20G A42G G58A
3. A21U A69C
4. U19C A20G G58A
5. C27A C31G C60G
6. A14U G67A
7. C29U C66A

1: 0.551; 2: 0.806; 3: 0.827; 4: 0.709; 5: 0.537; 6: 0.733; 7: 0.591
